B1: TET3 peptide 1705-1720 (methylcytosine dioxygenase TET3), 16-mer library wild type / USP8 rhodanese domain (ubiquitin carboxyl-terminal hydrolase 8, residues 174-317) (parent)
chain 1: GLALWEAKMKQLAERA
chain 2: KCETKEKGAITAKELYTMMTDKNISLIIMDARRMQDYQDSCILHSLSVPEEAISPGVTASWIEAHLPDDSKDTWKKRGNVEYVVLLDWFSSAKDLQIGTTLRSLKDALFKWESKTVLRNEPLVLEGGYENWLLCYPQYTTNAKV

Variants of: B1
assay.details: peptide-phage display deep mutational scan (M13, 16-mer library, displayed with a C-terminal GGGSG linker encoded by the 3' flank) selected against the GST-tagged USP8 rhodanese domain, four rounds; NGS counts summed over selection …
conditions: with USP8 rhodanese domain (ubiquitin carboxyl-terminal hydrolase 8, residues 174-317), 10 µg GST-bait on MaxiSorp, pre-cleared on GST, 2 h at 4 °C, five washes with 0.05% Tween 20 in PBS, not graded, scale: average over two replicas of the peptide's fractional NGS count
attribute.measured: screen value

mutation.notation	screen value
chain 1 K10R	0.00248

a: chain 1 M9P
b: chain 1 W5T
c: chain 1 E14A
d: chain 1 L12A
Rank the items in ascending order with respect to screen value. Your reply should list the labels following the order given in the request.
b, d, a, c
(b: 4.33e-06, d: 1.15e-05, a: 2.45e-05, c: 4.18e-05)

a: chain 1 A3Q
b: chain 1 L2P
c: chain 1 K10Y
d: chain 1 A7T
e: chain 1 K10S
Rank items: key screen value, increasing. To answer, write out the labels according to the requested order.
b, c, d, a, e

A: chain 1 A13E
B: chain 1 K10F
Please choose the item with the lower screen value value from this pair: A and B Your answer should be the label attached to the chosen record.
B

A: chain 1 R15T
B: chain 1 L2R
Lower screen value: A or B ? State the label of the item chosen.
B

I: chain 1 E14M
II: chain 1 K10N
III: chain 1 Q11H
IV: chain 1 K10L
V: chain 1 A13Y
Exam item: list the entries in increasing order of screen value. Response field: labels, in requested order.
V, IV, III, I, II

1: chain 1 Q11Y
2: chain 1 L4N
3: chain 1 K10T
Place the items in sequence of falling screen value. Reply with the labels, ordered as the question asks.
2, 3, 1

1: chain 1 E14T
2: chain 1 A7L
3: chain 1 L4V
4: chain 1 A3S
5: chain 1 M9N
Would you mind ranking these variants by ascending screen value? Present the labels in the sequence the task asks for.
2, 1, 5, 4, 3
(2: 4.33e-06, 1: 8.66e-06, 5: 1.73e-05, 4: 0.000145, 3: 0.00974)

1: chain 1 Q11F
2: chain 1 E6H
3: chain 1 E14S
4: chain 1 W5L
5: chain 1 A16T
Highest screen value first, then in falling order down to the smallest. Rank them, then answer with their labels in that order.
5, 3, 2, 4, 1
